These data points were gathered from patent EP3409295A1.

Assay: in vivo
Settings: female, SD, rat, iv, 5 mg/kg
test readout: level at 10 min

INSERT INTO assay_data (compound_structure_string, test_readout, result) VALUES
  ('COc1ccc2c3c1O[C@H]1[C@@H](OCCOCCOCCOCCO[C@H]4C=C[C@H]5[C@H]6Cc7ccc(OC)c8c7[C@@]5(CCN6C)[C@H]4O8)C=C[C@H]4[C@@H](C2)N(C)CC[C@@]341', 'level at 10 min', '1660 ng/mL'),
  ('CN1CC[C@]23c4c5ccc(O)c4O[C@H]2[C@@H](OCCOCCOCCOCCOCCOCCO[C@H]2C=C[C@H]4[C@H]6Cc7ccc(O)c8c7[C@@]4(CCN6C)[C@H]2O8)C=C[C@H]3[C@H]1C5', 'level at 10 min', '1200 ng/mL'),
  ('CN1CC[C@]23c4c5ccc(O)c4O[C@H]2[C@@H](OCCOCCOCCOCCOCCO[C@H]2C=C[C@H]4[C@H]6Cc7ccc(O)c8c7[C@@]4(CCN6C)[C@H]2O8)C=C[C@H]3[C@H]1C5', 'level at 10 min', '926 ng/mL'),
  ('CN1CC[C@]23c4c5ccc(O)c4O[C@H]2[C@@H](OCCOCCO[C@H]2C=C[C@H]4[C@H]6Cc7ccc(O)c8c7[C@@]4(CCN6C)[C@H]2O8)C=C[C@H]3[C@H]1C5', 'level at 10 min', '1210 ng/mL'),
  ('CN1CC[C@]23c4c5ccc(O)c4O[C@H]2[C@@H](OCCO[C@H]2C=C[C@H]4[C@H]6Cc7ccc(O)c8c7[C@@]4(CCN6C)[C@H]2O8)C=C[C@H]3[C@H]1C5', 'level at 10 min', '891 ng/mL');

Task item: Param item = `CN1CC[C@]23c4c5ccc(O)c4O[C@H]2[C@@H](OCCOCCOCCOCCOCCOCCOCCOCCO[C@H]2C=C[C@H]4[C@H]6Cc7ccc(O)c8c7[C@@]4(CCN6C)[C@H]2O8)C=C[C@H]3[C@H]1C5` ; retrieve measured level at 10 min.
Reply: 1230 ng/mL

Task item: Now this one: `CN1CC[C@]23c4c5ccc(O)c4O[C@H]2[C@@H](OCCOCCOCCOCCOCCOCCOCCO[C@H]2C=C[C@H]4[C@H]6Cc7ccc(O)c8c7[C@@]4(CCN6C)[C@H]2O8)C=C[C@H]3[C@H]1C5`
Reply: 1170 ng/mL

Task item: Now this one: `COc1ccc2c3c1O[C@H]1[C@@H](OCCOCCOCCOCCOCCOCCO[C@H]4C=C[C@H]5[C@H]6Cc7ccc(OC)c8c7[C@@]5(CCN6C)[C@H]4O8)C=C[C@H]4[C@@H](C2)N(C)CC[C@@]341`
Reply: 1740 ng/mL
